- experimental_system: T1, recombinant human MASP1 active protease (amino acids 297-699, C-terminal His Tag) (human, UniProt P48740 297-699)
- T1 sequence: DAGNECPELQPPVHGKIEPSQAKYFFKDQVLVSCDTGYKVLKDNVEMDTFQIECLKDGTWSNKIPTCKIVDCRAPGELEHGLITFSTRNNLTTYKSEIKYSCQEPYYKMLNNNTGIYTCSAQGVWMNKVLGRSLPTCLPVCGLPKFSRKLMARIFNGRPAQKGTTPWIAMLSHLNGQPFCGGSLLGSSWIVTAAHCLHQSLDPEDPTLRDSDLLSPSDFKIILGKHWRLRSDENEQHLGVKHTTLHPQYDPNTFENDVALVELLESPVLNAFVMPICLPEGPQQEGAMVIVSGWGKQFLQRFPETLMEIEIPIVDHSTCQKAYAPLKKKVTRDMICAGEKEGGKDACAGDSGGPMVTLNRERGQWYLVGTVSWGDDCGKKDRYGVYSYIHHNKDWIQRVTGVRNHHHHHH
- method_notes: cell-based or functional assay
Bridge positions count the residues as written; N and C are the ends. Square brackets hold non-standard residues; d marks the D form. Ends that are not written are not given here. Pro(4-spirocPr) = O=C(O)[C@@H]1CC2(CC2)CN1; Oic = O=C(O)[C@@H]1C[C@@H]2CCCC[C@@H]2N1; tBuAla = CC(C)(C)C[C@H](N)C(=O)O; Pen = CC(C)(S)[C@H](N)C(=O)O; NMeC = CN[C@@H](CS)C(=O)O; Orn = NCCC[C@H](N)C(=O)O
metric: human MASP1 IC50 (nM)
Answers are plain numbers, in nM.

Study these solved cases before continuing.
Record summary for AICSRSLP[Oic]I[Pen]IPD-NH2 (disulfide 3-11; also: HCl salt) [AIC+SRSLP-(Oic)-I-(Pen)+IPD-NH2 (HCl salt)] : reported human MASP1 IC50 = 1.5

Record summary for AICSRS[tBuAla]P[Pro(4-spirocPr)]I[Pen]IPD-NH2 (disulfide 3-11; N-terminus assumed; SMILES CC[C@H](C)[C@H](NC(=O)[C@H](C)N)C(=O)N[C@H]1CSSC(C)(C)[C@@H](C(=O)N[C@H](C(=O)N2CCC[C@H]2C(=O)N[C@@H](CC(=O)O)C(N)=O)[C@@H](C)CC)NC(=O)[C@H]([C@@H](C)CC)NC(=O)[C@@H]2CC3(CC3)CN2C(=O)[C@@H]2CCCN2C(=O)[C@H](CC(C)(C)C)NC(=O)[C@H](CO)NC(=O)[C@H](CCCNC(=N)N)NC(=O)[C@H](CO)NC1=O) [AIC+SRS-((tBu)A)-P-((6S)-5-Azaspiro[2.4]heptane-6-carboxylic acid)-I-(Pen)+IPD-NH2] : reported human MASP1 IC50 = 1.83

Record summary for AICSRS[tBuAla]PPI[Pen]IPD-OH (disulfide 3-11; N-terminus assumed; SMILES CC[C@H](C)[C@H](NC(=O)[C@H](C)N)C(=O)N[C@H]1CSSC(C)(C)[C@@H](C(=O)N[C@H](C(=O)N2CCC[C@H]2C(=O)N[C@@H](CC(=O)O)C(=O)O)[C@@H](C)CC)NC(=O)[C@H]([C@@H](C)CC)NC(=O)[C@@H]2CCCN2C(=O)[C@@H]2CCCN2C(=O)[C@H](CC(C)(C)C)NC(=O)[C@H](CO)NC(=O)[C@H](CCCNC(=N)N)NC(=O)[C@H](CO)NC1=O) [AIC+SRS-((tBu)A)-PPI-(Pen)+IPD-OH] : reported human MASP1 IC50 = 1.2

For every record below, what is its human MASP1 IC50?
1. AICSRS[tBuAla]PPI[NMeC]IPD-NH2 (disulfide 3-11; N-terminus assumed; SMILES CC[C@H](C)[C@H](NC(=O)[C@H](C)N)C(=O)N[C@H]1CSSC[C@@H](C(=O)N[C@H](C(=O)N2CCC[C@H]2C(=O)N[C@@H](CC(=O)O)C(N)=O)[C@@H](C)CC)N(C)C(=O)[C@H]([C@@H](C)CC)NC(=O)[C@@H]2CCCN2C(=O)[C@@H]2CCCN2C(=O)[C@H](CC(C)(C)C)NC(=O)[C@H](CO)NC(=O)[C@H](CCCNC(=N)N)NC(=O)[C@H](CO)NC1=O) [AIC+SRS-((tBu)A)-PPI-((N-Me)C)+IPD-NH2]
2. AICSRSLP[Oic]I[Pen]IPD-OH (disulfide 3-11; also: HCl salt) [AIC+SRSLP-(Oic)-I-(Pen)+IPD-OH (HCl salt)]
3. [Orn]ICSRS[tBuAla]PPI[NMeC]IPD-NH2 (disulfide 3-11; also: HCl salt) [(Orn)-IC+SRS-((tBu)A)-PPI-((N-Me)C)+IPD-NH2 (HCl salt)]

1.95
2.45
2.4

Origin of values: patent US20210246166A1
